Record form. Attribute: remaining activity at 200 µM. Fill in for each entry.
biological target: hADAM 17 (Homo sapiens); construct: purchased R&D systems; assay: Residual enzyme activity of other metalloproteases; format: biochemical; settings: 200 μM inhibitor; read-out: Residual enzyme activity ADAM17
Sequence (P78536 215-824): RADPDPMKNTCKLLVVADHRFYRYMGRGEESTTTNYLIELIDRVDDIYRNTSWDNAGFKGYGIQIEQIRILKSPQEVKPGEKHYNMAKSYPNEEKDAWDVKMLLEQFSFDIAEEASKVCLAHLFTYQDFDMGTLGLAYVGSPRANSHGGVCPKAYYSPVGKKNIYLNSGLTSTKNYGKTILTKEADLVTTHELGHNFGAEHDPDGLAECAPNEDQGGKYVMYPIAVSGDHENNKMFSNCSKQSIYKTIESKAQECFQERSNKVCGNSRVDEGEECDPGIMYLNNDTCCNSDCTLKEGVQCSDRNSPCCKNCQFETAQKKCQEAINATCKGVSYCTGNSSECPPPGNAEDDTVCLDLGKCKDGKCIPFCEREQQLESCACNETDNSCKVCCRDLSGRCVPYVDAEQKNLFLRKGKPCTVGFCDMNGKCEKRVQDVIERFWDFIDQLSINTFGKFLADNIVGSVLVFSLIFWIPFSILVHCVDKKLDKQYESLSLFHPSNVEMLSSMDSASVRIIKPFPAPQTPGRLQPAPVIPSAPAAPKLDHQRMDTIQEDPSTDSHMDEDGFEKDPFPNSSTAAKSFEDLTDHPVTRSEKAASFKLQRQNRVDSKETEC
Give bare numbers, in %.

# count of solved cases: 5
molecule.smiles	remaining activity at 200 µM (%)
O=C(Cc1c(-c2cccc(C(=O)O)c2)n[nH]c1-c1ccc(Cl)c(O)c1F)NO	91
O=C(Cn1c(-c2ccccc2)nc2ccccc21)NO	56
O=C(Cc1c(-c2ccccc2)nn(Cc2cccc(C(=O)O)c2)c1-c1ccccc1)NO	25
O=C(CCc1c(-c2ccccc2)noc1-c1ccccc1)NO	24
COc1cccc(-c2n[nH]c(-c3ccccc3)c2CC(=O)NO)c1	6

Count: 6. Required value per item: remaining activity at 200 µM.
1. O=C(Cn1c(-c2ccccc2)nnc1-c1ccccc1)NO
2. COc1ccc(-c2n[nH]c(-c3ccccc3)c2CC(=O)NO)cc1OC
3. O=C(Cc1c(-c2ccc3c(c2)OCO3)n[nH]c1-c1ccc2c(c1)OCO2)NO
4. O=C(Cc1c(-c2ccccc2)nn(Cc2ccc(C(=O)O)cc2)c1-c1ccccc1)NO
5. O=C(Cc1c(-c2ccccc2)noc1-c1ccccc1)NO
6. O=C(CCc1c(-c2ccccc2)n[nH]c1-c1ccccc1)NO

Result string:
1: 56; 2: 6; 3: 4; 4: 9; 5: 9; 6: 27

----------
Biological target: hMeprin β (Homo sapiens)
Sequence (Q16820 62-701): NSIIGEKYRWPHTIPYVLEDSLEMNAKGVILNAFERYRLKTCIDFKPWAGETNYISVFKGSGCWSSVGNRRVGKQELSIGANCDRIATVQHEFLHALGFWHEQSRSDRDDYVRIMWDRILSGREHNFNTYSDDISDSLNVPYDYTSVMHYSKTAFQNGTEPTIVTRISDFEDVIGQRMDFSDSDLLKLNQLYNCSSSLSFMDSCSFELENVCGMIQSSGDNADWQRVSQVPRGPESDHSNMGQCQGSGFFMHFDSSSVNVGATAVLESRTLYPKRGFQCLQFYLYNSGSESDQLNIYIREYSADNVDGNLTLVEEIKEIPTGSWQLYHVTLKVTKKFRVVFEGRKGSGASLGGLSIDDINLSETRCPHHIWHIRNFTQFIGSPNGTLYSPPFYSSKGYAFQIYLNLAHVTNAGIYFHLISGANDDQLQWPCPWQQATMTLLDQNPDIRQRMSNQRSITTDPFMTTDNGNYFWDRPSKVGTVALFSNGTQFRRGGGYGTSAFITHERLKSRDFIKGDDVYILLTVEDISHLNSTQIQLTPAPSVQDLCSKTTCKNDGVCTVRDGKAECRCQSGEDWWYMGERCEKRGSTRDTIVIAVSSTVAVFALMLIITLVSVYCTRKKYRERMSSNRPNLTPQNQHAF
Record form. Attribute: Ki. Fill in for each entry.
One number for each entry, in nM.

# count of solved cases: 3
compound	Ki [nM]
O=C(Cc1c(Cc2ccccc2)n[nH]c1-c1ccccc1)NO [Example 46]	1730
O=C(Cc1c(-c2cccc(C(=O)O)c2)n[nH]c1-c1cccc(C(=O)O)c1)NO [Example 58]	14
O=C(Cc1c(-c2ccc3c(c2)OCO3)n[nH]c1-c1ccc2c(c1)OCO2)NO [Example 57]	113

Count: 3. Required value per item: Ki.
1. O=C(Cc1c(-c2ccc(C(=O)O)cc2)n[nH]c1-c1ccc(Cl)c(O)c1F)NO [Example 65]
2. COc1ccc(-c2nc3ccccc3n2CC(=O)NO)cc1 [Example 15]
3. O=C(Cc1c(-c2ccccc2)[nH]nc1[C@H]1CC[C@@H](C(=O)O)CC1)NO [Example 75]

Result string:
1. 11
2. 252
3. 35
